The entries below come with measured pIC50 values attached.
# System: PC-3
# TEST SUMMARY: Cytotoxicity against human PC-3 cells assessed as reduction in cell viability measured after 48 hrs by MTT assay
# Assay type: functional, cell-based
# EXPERIMENTAL CONTEXT: PC-3, 48 h
On this scale, pIC50 is minus log10 of a concentration expressed in M (mol/L).

Look over these answered cases.
- TEST SMILES: "Oc1ccc(Cl)cc1/C=N/CCc1ccccn1"
  pIC50: 3.96
- TEST SMILES: "Oc1c(Br)cc(Cl)cc1/C=N/CCc1ccccn1"
  pIC50: 4.08

Please tell me: pIC50 of "Oc1ccc(Br)cc1/C=N/CCc1ccccn1" , system PC-3?
3.97

====

# System: MCF7
# TEST SUMMARY: Cytotoxicity against human MCF7 cells assessed as reduction in cell viability measured after 48 hrs by MTT assay
# Type: functional, cell-based
# EXPERIMENTAL CONTEXT: MCF7, 48 h
MEASUREMENT TYPE: pIC50
On this scale, pIC50 is minus log10 of a concentration expressed in M (mol/L).

Look over these answered cases.
- TEST SMILES: "Oc1c(Br)cc(Cl)cc1/C=N/CCc1ccccn1"
  ASSAY VALUE: 4.32
- TEST SMILES: "Oc1ccc(Cl)cc1/C=N/CCc1ccccn1"
  ASSAY VALUE: 4.35

Here's the next entry for you.
Please tell me: pIC50 of "Oc1ccc(Br)cc1/C=N/CCc1ccccn1" , system MCF7?
4.38

Data origin, for the record: ChEMBL document CHEMBL4825727
